# ASSAY_PROTOCOL: Maximum tolerated dose
# CONDITIONS_USED: mouse, in vivo, iv; intravenously
MEASURED_METRIC: MTD (mg/kg/day)
Give your result in mg/kg/day as a bare value.

q: Look up MTD: Cc1c(F)c(N)c2c(=O)cc(-c3ccc(NC(=O)[C@@H](N)CCCCN)c(F)c3)oc2c1F
a: 75

====

# Tested on: MCF-7
# ASSAY_PROTOCOL: MTT assay, MCF-7 breast cancer cell line
# Format: cell-based, human
# CONDITIONS_USED: Homo sapiens, MCF7; MCF-7, mean of three independent MTT experiments; read-out: AF IC50
MEASURED_METRIC: IC50 (nM)
Give your result in nM as a bare value.

q: Give MCF-7 IC50 for Cc1c(F)c(N)c2c(=O)cc(-c3ccc(N)c(F)c3)oc2c1F [AF, aminoflavone]
a: 16
